tested on: pTau; test: pTau assay; type: cell-based
Property: IC50; scope: individual compounds
Write the value in nM as a bare number.

Some solved cases for reference:
CC1(O)CC=CCCOc2ccncc2NC(=O)c2ccnc(n2)NC1 (mixture of isomers) [Example 41]; 266
CC1(O)C/C=C/CN2CCN(CC2)c2cc(F)ncc2NC(=O)c2ccnc(n2)NC1 (stereo not shown) [Example 39]; 372
CC1(O)CCCCCOc2ccncc2NC(=O)c2ccnc(n2)NC1 (stereo not shown) [Example 42]; 96
O=C1Nc2cnc(F)cc2N2CCN(C/C=C/CCCNc3nccc1n3)CC2 (single isomer, unassigned) [Example 23]; 18

Input: If you can, please state the reported IC50 value of CC1(C)C/C=C/CN2CCN(CC2)c2cc(F)ncc2NC(=O)c2ccnc(n2)NC1 [Example 32] .
Output: 80

Input: If you can, please state the reported IC50 value of O=C1Nc2cnccc2OCCCCCCNc2nccc1n2 [Example 9] .
Output: 146

Input: If you can, please state the reported IC50 value of O=C1Nc2cnc(F)cc2N2CCN(C/C=C\CC3(CC3)CNc3nccc1n3)CC2 [Example 44] .
Output: 1640
